# test protocol: Oral bioavailability in Balb/c mouse at 50 mg/kg
# Assay type: ADME, organism-based
# experimental parameters: in vivo
readout: bioavailability (%)
# unit: % | format: bare number

Problem: Field request: bioavailability | item: O=C(NO)c1ccc(CCCN2CCC(CN[C@H]3C[C@@H]3c3ccccc3)CC2)cc1 (racemic)
Result: 44

###

# target: UniProt Q12809
# Sequence (Q12809 whole entry): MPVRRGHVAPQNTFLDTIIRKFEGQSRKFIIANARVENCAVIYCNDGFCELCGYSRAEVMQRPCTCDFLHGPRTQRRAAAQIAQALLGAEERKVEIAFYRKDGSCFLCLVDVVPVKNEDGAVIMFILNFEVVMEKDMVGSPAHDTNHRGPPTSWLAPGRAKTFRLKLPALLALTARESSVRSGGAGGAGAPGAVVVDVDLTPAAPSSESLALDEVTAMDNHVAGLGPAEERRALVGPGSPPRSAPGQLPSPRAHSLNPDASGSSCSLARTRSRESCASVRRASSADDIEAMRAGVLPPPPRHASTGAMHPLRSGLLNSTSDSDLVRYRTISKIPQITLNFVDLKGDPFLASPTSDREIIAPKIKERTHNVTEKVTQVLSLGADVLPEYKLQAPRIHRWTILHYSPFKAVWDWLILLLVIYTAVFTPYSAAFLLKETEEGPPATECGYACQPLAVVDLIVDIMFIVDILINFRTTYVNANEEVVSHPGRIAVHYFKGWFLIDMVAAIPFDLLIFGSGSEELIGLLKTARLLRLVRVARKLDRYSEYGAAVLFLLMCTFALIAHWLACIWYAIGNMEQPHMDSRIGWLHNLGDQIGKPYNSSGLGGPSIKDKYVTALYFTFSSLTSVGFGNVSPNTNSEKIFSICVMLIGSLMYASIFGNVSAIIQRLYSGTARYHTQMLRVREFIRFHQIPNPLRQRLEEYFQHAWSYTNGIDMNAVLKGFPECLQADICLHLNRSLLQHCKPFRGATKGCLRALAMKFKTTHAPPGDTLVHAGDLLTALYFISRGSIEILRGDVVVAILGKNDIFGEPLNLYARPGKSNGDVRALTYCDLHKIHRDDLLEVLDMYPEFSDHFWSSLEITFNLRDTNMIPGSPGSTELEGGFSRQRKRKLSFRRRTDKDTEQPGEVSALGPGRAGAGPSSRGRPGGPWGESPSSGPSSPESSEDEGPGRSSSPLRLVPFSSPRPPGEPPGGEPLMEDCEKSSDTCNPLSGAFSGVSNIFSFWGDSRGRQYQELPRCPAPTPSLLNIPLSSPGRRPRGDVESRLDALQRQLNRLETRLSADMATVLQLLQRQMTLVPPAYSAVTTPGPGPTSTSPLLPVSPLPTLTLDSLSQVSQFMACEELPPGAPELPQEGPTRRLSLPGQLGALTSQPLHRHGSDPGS
readout: pIC50
In plain terms, pIC50 is the concentration in mol/L turned into minus its base-10 logarithm.

Problem: Please state recorded pIC50 (tested on UniProt Q12809) of O=C(NO)c1ccc(CCCN2CCC(CN[C@H]3C[C@@H]3c3ccccc3)CC2)cc1 (racemic)
Result: 5.25

###

# test protocol: Permeability from apical to basolateral side in human Caco2 cells
# Assay type: ADME, cell-based
# experimental parameters: Caco-2, read-out: permeability
readout: Papp A→B (×10⁻⁶ cm/s)
# unit: ×10⁻⁶ cm/s | format: bare number

Problem: Field request: Papp A→B | item: O=C(NO)c1ccc(CCCN2CCC(CN[C@H]3C[C@@H]3c3ccccc3)CC2)cc1 (racemic)
Result: 2.67

###

# System: MM1.S
# test protocol: Antiproliferative activity against human MM1.S cells assessed as reduction in cell viability after 144 hrs
# Type: functional, cell-based
readout: EC50

Problem: Please state recorded EC50 (tested on MM1.S) of Cl.Cl.NC1CCC(N[C@@H]2C[C@H]2c2ccccc2)CC1 (stereo partly drawn)
Result: > 10 µM

Problem: Please state recorded EC50 (tested on MM1.S) of O=C(NO)c1coc(CCCN2CCC(CN[C@H]3C[C@@H]3c3ccccc3)CC2)n1 (racemic)
Result: > 10 µM

Problem: Please state recorded EC50 (tested on MM1.S) of O=C(NO)c1csc(CCCN2CCC(CN[C@H]3C[C@@H]3c3ccccc3)CC2)n1 (racemic)
Result: > 10 µM

###

# test protocol: Stability in human liver microsomes assessed as parent compound remaining measured after 30 mins
# Format: ADME, Microsome
# experimental parameters: liver microsomes, read-out: Stabilty
readout: remaining at 0.5 h (%)
# unit: % | format: bare number

Example entries and their recorded answers appear below.
[[record]]
compound = "O=C(O)c1ccc(CCCN2CCC(CN[C@H]3C[C@@H]3c3ccccc3)CC2)cc1 (racemic)"
test_result = 63

[[record]]
compound = "Cc1noc(C)c1-c1ccc([C@H]2C[C@@H]2NCC2CCN(CCCc3ccc(C(=O)NO)cc3)CC2)cc1 (racemic)"
test_result = 82

[[record]]
compound = "O=C(NO)c1ccc(CCCN2CCC(CN[C@H]3C[C@@H]3c3ccccc3)CC2)cc1"
test_result = 51

[[record]]
compound = "COc1ccc([C@H]2C[C@@H]2NCC2CCN(CCCc3ccc(C(=O)NO)cc3)CC2)cc1 (racemic)"
test_result = 74

[[record]]
compound = "COc1ccc([C@H]2C[C@@H]2NCc2cn3c(n2)CN(CCCc2ccc(C(=O)NO)cc2)CC3)cc1 (racemic)"
test_result = 73

[[record]]
compound = "O=C(NO)c1ccc(CCN2CCC(CN[C@H]3C[C@@H]3c3ccccc3)CC2)cc1 (racemic)"
test_result = 77

[[record]]
compound = "O=C(NO)c1csc(CCCN2CCC(CN[C@H]3C[C@@H]3c3ccccc3)CC2)n1 (racemic)"
test_result = 88


// next item, remaining at 0.5 h requested
Problem: Field request: remaining at 0.5 h | item: O=C(NO)c1ccc(CCCN2CCc3cc(CN[C@H]4C[C@@H]4c4ccc(F)cc4)ccc3C2)cc1 (racemic)
Result: 72

###

# test protocol: Stability in mouse liver microsomes assessed as parent compound remaining measured after 30 mins
# Assay type: ADME, Microsome
# experimental parameters: liver microsomes, read-out: Stabilty
Measured remaining at 0.5 h values are reported for all entries that follow.
# unit: % | format: bare number

Example entries and their recorded answers appear below.
[[record]]
compound = "O=C(NO)c1ccc(CCN2CCC(CN[C@H]3C[C@@H]3c3ccccc3)CC2)cc1 (racemic)"
unit_abbrev = "%"
test_result = 68

[[record]]
compound = "Cn1ccc(-c2ccc([C@H]3C[C@@H]3NCC3CCN(CCCc4ccc(C(=O)NO)cc4)CC3)cc2)cc1=O (racemic)"
unit_abbrev = "%"
test_result = 72

[[record]]
compound = "O=C(NO)c1ccc(CCCN2CCC(CN[C@H]3C[C@@H]3c3ccc(C(=O)N4CCCCC4)cc3)CC2)cc1 (racemic)"
unit_abbrev = "%"
test_result = 72


Problem: Field request: remaining at 0.5 h | item: O=C(NO)c1csc(CCCN2CCC(CN[C@H]3C[C@@H]3c3ccccc3)CC2)n1 (racemic)
Result: 95

Problem: Field request: remaining at 0.5 h | item: O=C(NO)c1ccc(CCCN2CCC(CN[C@H]3C[C@@H]3c3ccc(OCc4ccc(F)cc4)cc3)CC2)cc1 (racemic)
Result: 56

Problem: Field request: remaining at 0.5 h | item: O=C(O)c1ccc(CCCN2CCC(CN[C@H]3C[C@@H]3c3ccccc3)CC2)cc1 (racemic)
Result: 80

Problem: Field request: remaining at 0.5 h | item: COc1ccc([C@H]2C[C@@H]2NCC2CCN(CCCc3ccc(C(=O)NO)cc3)CC2)cc1 (racemic)
Result: 91

Problem: Field request: remaining at 0.5 h | item: O=C(NO)c1cnc(CCCN2CCC(CN[C@H]3C[C@@H]3c3ccccc3)CC2)s1 (racemic)
Result: 87

Problem: Field request: remaining at 0.5 h | item: Cc1noc(C)c1-c1ccc([C@H]2C[C@@H]2NCC2CCN(CCCc3ccc(C(=O)NO)cc3)CC2)cc1 (racemic)
Result: 77

Problem: Field request: remaining at 0.5 h | item: O=C(NO)c1ccc(CCCN2CCC(CN[C@H]3C[C@@H]3c3ccc(-c4ccc(F)cc4)cc3)CC2)cc1 (racemic)
Result: 75

Problem: Field request: remaining at 0.5 h | item: O=C(NO)c1ccc(CCCN2CCC(CN[C@@H]3C[C@H]3c3ccccc3)CC2)cc1
Result: 26

Problem: Field request: remaining at 0.5 h | item: O=C(NO)c1ccc(CCCN2CCC(CN[C@H]3C[C@@H]3c3ccc(F)cc3)CC2)cc1 (racemic)
Result: 66

Problem: Field request: remaining at 0.5 h | item: O=C(NO)c1ccc(CCCN2CCC(CN[C@H]3C[C@@H]3c3ccc(-c4ccc(C(F)(F)F)nc4)cc3)CC2)cc1 (racemic)
Result: 85
